# Target Or Test System: Cdh1 WD40 domain (yeast) (Saccharomyces cerevisiae)
# Construct: the WD40 domains of yeast Cdh1 (aa 241–550; pNH144); 2xStrep-Tag II (N); made in house; host or cells: Sf9 insect cells (baculovirus)
# Sequence (P53197 241-550): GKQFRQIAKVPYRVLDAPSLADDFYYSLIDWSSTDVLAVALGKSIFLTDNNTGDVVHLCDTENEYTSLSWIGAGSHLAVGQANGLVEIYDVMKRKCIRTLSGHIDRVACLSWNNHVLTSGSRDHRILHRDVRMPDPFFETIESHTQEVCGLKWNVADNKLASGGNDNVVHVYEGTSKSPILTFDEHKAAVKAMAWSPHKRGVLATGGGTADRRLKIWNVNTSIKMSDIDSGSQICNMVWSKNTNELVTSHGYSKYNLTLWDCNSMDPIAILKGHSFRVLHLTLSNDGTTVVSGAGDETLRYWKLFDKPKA
# Assay Remarks: Fluorescence anisotropy, 10 nM Cy5-labeled degron peptide, yeast Cdh1 WD40
# Type: binding
# Assay Setup: mean of the listed replicates; source data of Fig. 1a (there μM); read-out: Mean Kd
Endpoint: Kd (µM)
Respond numerically; units are µM and should not be typed.

Example cases with answers are listed next.
{"Substance": "GVSTNKENEGPEYPTKIE-K(Cy5) [Hsl1 KEN and dark D box, Cy5 Hsl1 KEN peptide (10 nM) in presence of unlabeled Hsl1 D box (100 µM)]", "Quantitative Readout": 3.37}
{"Substance": "EQKPKRAALSDITNSFNKMN-K(Cy5) [Hsl1 D box and dark KEN mutant, Cy5 Hsl1 D box peptide (10 nM) in presence of unlabeled mutated Hsl1 KEN (100 µM)]", "Quantitative Readout": 2.86}

## Task Name the reported Kd value associated with the substance EQKPKRAALSDITNSFNKMN-K(Cy5) [Hsl1 D box and dark KEN, Cy5 Hsl1 D box peptide (10 nM) in presence of unlabeled Hsl1 KEN (100 µM)]
## Result 1.12

## Task Name the reported Kd value associated with the substance GVSTNKENEGPEYPTKIE-K(Cy5) [Hsl1 KEN and dark D box mutant, Cy5 Hsl1 KEN peptide (10 nM) in presence of unlabeled mutated Hsl1 D box (100 µM)]
## Result 10.9
